# credit: paper PMC7444767

assay: Plasma pharmacokinetics by validated LC–MS/MS; assay type: in vivo, human; conditions: human, plasma, oral, 1 mg, GM AUCinf, MAD part (day 14); 1 mg QD; n = 6
Experimental Endpoint: AUC(0-inf)

**Q:** Name the reported AUC(0-inf) value associated with the compound `CC#CC(=O)N[C@H]1CCCN(c2c(F)cc(C(N)=O)c3[nH]c(C)c(C)c23)C1`
**A:** 0.0105 µg·h/mL

====

experiment: Plasma pharmacokinetics by validated LC–MS/MS; assay type: in vivo, human; conditions: human, plasma, oral, 1 mg, Mean t1/2, MAD part (day 14); 1 mg QD; n = 6
Experimental Endpoint: half-life (h)
Please state the figure in h; there is no need to write the unit.

**Q:** Reported half-life, compound CC#CC(=O)N[C@H]1CCCN(c2c(F)cc(C(N)=O)c3[nH]c(C)c(C)c23)C1 [Branebrutinib] : ____
**A:** 1.66

====

experiment: Plasma pharmacokinetics by validated LC–MS/MS; format: in vivo, human; conditions: human, plasma, oral, 1 mg, GM AUCinf, SAD part (day 1); 1 mg; n = 6
Experimental Endpoint: AUC(0-inf) (ng·h/mL)
Number in ng·h/mL, nothing else.

**Q:** Form field: reported AUC(0-inf) of CC#CC(=O)N[C@H]1CCCN(c2c(F)cc(C(N)=O)c3[nH]c(C)c(C)c23)C1 [Branebrutinib]
**A:** 8.1

====

assay: Plasma pharmacokinetics by validated LC–MS/MS; format: in vivo, human; conditions: human, plasma, oral, 1 mg, Median Tmax, MAD part (day 14); 1 mg QD; n = 6
Experimental Endpoint: Tmax

**Q:** Which Tmax is reported for this compound? `CC#CC(=O)N[C@H]1CCCN(c2c(F)cc(C(N)=O)c3[nH]c(C)c(C)c23)C1`
**A:** 30 min

====

assay: Plasma pharmacokinetics by validated LC–MS/MS; type: in vivo, human; conditions: human, plasma, oral, 30 mg
Experimental Endpoint: Vd/F (L)
A number alone suffices; assume L.

**Q:** Which Vd/F reading was recorded for the molecule CC#CC(=O)N[C@H]1CCCN(c2c(F)cc(C(N)=O)c3[nH]c(C)c(C)c23)C1 [Branebrutinib] ?
**A:** 245

====

assay: Plasma pharmacokinetics by validated LC–MS/MS; format: in vivo, human; conditions: human, plasma, oral, 30 mg, GM AUCinf, SAD part (day 1); 30 mg; n = 6
Experimental Endpoint: AUC(0-inf) (ng·h/mL)
The figure you give is taken to be in ng·h/mL; do not add the unit.

**Q:** Given CC#CC(=O)N[C@H]1CCCN(c2c(F)cc(C(N)=O)c3[nH]c(C)c(C)c23)C1 [Branebrutinib] , state its recorded AUC(0-inf).
**A:** 282

====

assay: Plasma pharmacokinetics by validated LC–MS/MS; assay type: in vivo, human; conditions: human, plasma, oral, 3 mg, GM Cmax, SAD part (day 1); 3 mg; n = 6
Experimental Endpoint: Cmax

**Q:** For CC#CC(=O)N[C@H]1CCCN(c2c(F)cc(C(N)=O)c3[nH]c(C)c(C)c23)C1 [Branebrutinib] , what is its reported Cmax?
**A:** 14.2 ng/mL

====

experiment: Plasma pharmacokinetics by validated LC–MS/MS; assay type: in vivo, human; settings: human, plasma, oral, 10 mg, Mean t1/2, MAD part (day 14); 10 mg QD; n = 5
Experimental Endpoint: half-life (h)
Please state the figure in h; there is no need to write the unit.

**Q:** Recorded half-life for CC#CC(=O)N[C@H]1CCCN(c2c(F)cc(C(N)=O)c3[nH]c(C)c(C)c23)C1 [Branebrutinib] , please?
**A:** 1.74

====

test: Plasma pharmacokinetics by validated LC–MS/MS; assay type: in vivo, human; settings: human, plasma, oral, 0.3 mg, Median Tmax, JMAD part (day 14); 0.3 mg QD; n = 6
Experimental Endpoint: Tmax

**Q:** # query: Tmax of entry `CC#CC(=O)N[C@H]1CCCN(c2c(F)cc(C(N)=O)c3[nH]c(C)c(C)c23)C1`
**A:** 30 min

====

experiment: Plasma pharmacokinetics by validated LC–MS/MS; assay type: in vivo, human; details: human, plasma, oral, 10 mg, Mean t1/2, SAD part (day 1); 10 mg; n = 6
Experimental Endpoint: half-life

**Q:** Look up half-life: `CC#CC(=O)N[C@H]1CCCN(c2c(F)cc(C(N)=O)c3[nH]c(C)c(C)c23)C1`
**A:** 1.56 h

====

assay: Plasma pharmacokinetics by validated LC–MS/MS; assay type: in vivo, human; conditions: human, plasma, oral, 3 mg, Mean t1/2, SAD part (day 1); 3 mg; n = 6
Experimental Endpoint: half-life (h)
Give the value, in units of h, as a plain number.

**Q:** Given the molecule `CC#CC(=O)N[C@H]1CCCN(c2c(F)cc(C(N)=O)c3[nH]c(C)c(C)c23)C1` , what is its reported half-life?
**A:** 1.73

====

test: Plasma pharmacokinetics by validated LC–MS/MS; assay type: in vivo, human; conditions: human, plasma, oral, 3 mg, GM AUCinf, MAD part (day 14); 3 mg QD; n = 6
Experimental Endpoint: AUC(0-inf) (ng·h/mL)
State just the number; it will be interpreted in ng·h/mL.

**Q:** Tell me the measured AUC(0-inf) of `CC#CC(=O)N[C@H]1CCCN(c2c(F)cc(C(N)=O)c3[nH]c(C)c(C)c23)C1` , please.
**A:** 30.6

====

assay: Plasma pharmacokinetics by validated LC–MS/MS; format: in vivo, human; conditions: human, plasma, oral, 3 mg, GM Cmax, JMAD part (day 14); 3 mg QD; n = 6
Experimental Endpoint: Cmax (ng/mL)
Provide only the numeric value, understood in ng/mL.

**Q:** Look up Cmax for this molecule: `CC#CC(=O)N[C@H]1CCCN(c2c(F)cc(C(N)=O)c3[nH]c(C)c(C)c23)C1`
**A:** 16.3

====

assay: Plasma pharmacokinetics by validated LC–MS/MS; format: in vivo, human; settings: human, plasma, oral, 0.3 mg, Mean t1/2, JMAD part (day 14); 0.3 mg QD; n = 5
Experimental Endpoint: half-life (min)
Numeric only. Scale: min

**Q:** Reported half-life for CC#CC(=O)N[C@H]1CCCN(c2c(F)cc(C(N)=O)c3[nH]c(C)c(C)c23)C1 [Branebrutinib] : what is it?
**A:** 54.6

====

assay: Plasma pharmacokinetics by validated LC–MS/MS; format: in vivo, human; conditions: human, plasma, oral, 3 mg
Experimental Endpoint: Vd/F (L)
Numeric only. Scale: L

**Q:** What does the data say about its Vd/F? Entry: CC#CC(=O)N[C@H]1CCCN(c2c(F)cc(C(N)=O)c3[nH]c(C)c(C)c23)C1 [Branebrutinib]
**A:** 304

====

assay: Plasma pharmacokinetics by validated LC–MS/MS; assay type: in vivo, human; details: human, plasma, oral, 1 mg
Experimental Endpoint: Vd/F

**Q:** What measured Vd/F goes with CC#CC(=O)N[C@H]1CCCN(c2c(F)cc(C(N)=O)c3[nH]c(C)c(C)c23)C1 [Branebrutinib] ?
**A:** 255 L

====

test: Plasma pharmacokinetics by validated LC–MS/MS; format: in vivo, human; details: human, plasma, oral, 1 mg, GM Cmax, MAD part (day 14); 1 mg QD; n = 6
Experimental Endpoint: Cmax
Returns: string containing the numeric result and its unit.

**Q:** Sample `CC#CC(=O)N[C@H]1CCCN(c2c(F)cc(C(N)=O)c3[nH]c(C)c(C)c23)C1` — what was its Cmax?
**A:** 5.9 ng/mL
